Measured pKd values are reported for all entries that follow.
Biological target: T1, LIN7B, Q9HAP6
T1 sequence (Q9HAP6 88-185, limits assumed, looked up): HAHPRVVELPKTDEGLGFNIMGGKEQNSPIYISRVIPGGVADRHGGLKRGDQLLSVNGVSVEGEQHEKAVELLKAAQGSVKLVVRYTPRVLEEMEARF
Experiment: holdup assay
Set-up: key: below the threshold = too weak to quantify, mostly under pKd 3.1 to 4
Settings: plain residues with an end cap or a label only (N-terminal biotin on a linker: ado-ado)
The response must contain the number and no unit.

{"BINDER": "RRISSLESEV [GRIN2C, Q14957]", "pKd": 4.12}
{"BINDER": "SNAGNTATKA [NOSTRIN, Q8IVI9]", "pKd": 3.74}

Let's switch to this binder now.
Quick one: give measured pKd for RHGSCVETSL [TMEM151B, Q8IW70]
4.45

These measurements were taken from paper PMC9482650.
